Assayed System: CK-1ε (Homo sapiens, UniProt P49674)
Construct: host or cells: Sf9 insect cells (baculovirus)
Sequence (P49674 whole entry): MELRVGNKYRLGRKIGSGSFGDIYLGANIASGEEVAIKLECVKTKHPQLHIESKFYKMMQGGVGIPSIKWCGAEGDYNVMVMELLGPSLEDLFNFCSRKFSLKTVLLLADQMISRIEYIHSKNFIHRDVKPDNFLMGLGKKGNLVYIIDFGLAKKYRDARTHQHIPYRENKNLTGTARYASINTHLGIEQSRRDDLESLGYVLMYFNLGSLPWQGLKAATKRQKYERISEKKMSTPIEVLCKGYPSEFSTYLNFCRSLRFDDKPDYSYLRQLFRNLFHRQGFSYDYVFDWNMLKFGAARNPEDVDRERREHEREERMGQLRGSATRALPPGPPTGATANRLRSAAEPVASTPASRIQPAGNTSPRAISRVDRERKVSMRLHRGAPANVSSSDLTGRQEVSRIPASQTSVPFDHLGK
Assay Summary: ADP-Glo kinase inhibition assay, CK-1ε
Type: biochemical
Condition Label: 10 μM compound; percentage of maximum activity of the DMSO control; mean n = 2; 10 µM ATP; read-out: Residual activity CK-1ε
List of remaining activity at 10 µM values.
Enter your answer as a number in %; do not include the unit.

- Molecule: "COC(=N)c1nc2ccc3c(=O)n(Cc4ccccc4)cnc3c2s1 [Compound 6d]"
  Assay Value: 98
- Molecule: "COC(=N)c1nc2cc3ncn(Cc4ccccc4)c(=O)c3cc2s1 [Compound 6b]"
  Assay Value: 103
- Molecule: "COC(=N)c1nc2cc3ncnc(Nc4ccc(OC)cc4F)c3cc2s1 [Compound 15b]"
  Assay Value: 108

Prompt: Value lookup for remaining activity at 10 µM; key = COC(=N)c1nc2c(ccc3c(=O)n(Cc4ccccc4)cnc32)s1 [Compound 6c]
Response: 87

Prompt: Field request: remaining activity at 10 µM | item: COC(=N)c1nc2ccc3ncn(Cc4ccccc4)c(=O)c3c2s1 [Compound I, reference compound]
Response: 70

Prompt: Would you kindly share the measured remaining activity at 10 µM for COC(=N)c1nc2cc3c(=O)n(Cc4ccccc4)cnc3cc2s1 [Compound 6a] ?
Response: 69

Prompt: Look up remaining activity at 10 µM: COC(=N)c1nc2cc3c(Nc4ccc(OC)cc4F)ncnc3cc2s1 [Compound 15a]
Response: 72
